These measurements were taken from a melting point compilation (Tetko et al.; mined from patent text by program, amines drawn as free bases though some values may be those of a salt).

PARAMETER: melting point

>  <COMPOUND>
O=[N+]([O-])c1cc(C(F)(F)F)ccc1Sc1nc(-c2ccc(Cl)cc2)c(-c2ccc(Cl)cc2)[nH]1

>  <PARAMETER>
melting point

>  <VALUE MEASURED>
264 to 266 °C

$$$$
>  <COMPOUND>
C#CCNC(=O)c1ncn2c1CN(C)C(=O)c1c-2ccc(F)c1Cl

>  <PARAMETER>
melting point

>  <VALUE MEASURED>
235 to 237 °C

$$$$
>  <COMPOUND>
COc1cc(OC)c(C23CC4CC(CC(C4)C2)C3)cc1C=O

>  <PARAMETER>
melting point

>  <VALUE MEASURED>
152 to 154 °C

$$$$
>  <COMPOUND>
CCCCc1nc(Cl)c(C(=O)O)n1Cc1ccc2oc(-c3ccccc3C#N)c(OC)c2c1

>  <PARAMETER>
melting point

>  <VALUE MEASURED>
158 to 160 °C

$$$$
>  <COMPOUND>
COc1cc(C(=O)N2CCN(c3cccc(C)c3Cl)CC2)cc(OC)c1OC

>  <PARAMETER>
melting point

>  <VALUE MEASURED>
156 to 159 °C

$$$$
>  <COMPOUND>
O=C1COc2ccc(C3=Cc4cc(F)ccc4SC3c3ccc(F)cc3)cc2N1 (centres undefined)

>  <PARAMETER>
melting point

>  <VALUE MEASURED>
191 to 192 °C

$$$$
>  <COMPOUND>
c1ccc(N=C2CCCc3ccccc32)cc1

>  <PARAMETER>
melting point

>  <VALUE MEASURED>
53 °C

$$$$
>  <COMPOUND>
CC1C=NNc2c(-c3ccc(F)cc3)c(-c3ccncc3)nn21 (centres undefined)

>  <PARAMETER>
melting point

>  <VALUE MEASURED>
204 °C

$$$$
>  <COMPOUND>
CCCCCCCCCCCOCc1ccc(C(=O)O)cc1OCCCCCCCCCCC

>  <PARAMETER>
melting point

>  <VALUE MEASURED>
61 to 63 °C

$$$$
